The following compounds are listed with their measured cell viability values.
System: HL-60
Experiment: cell viability (% survival relative to DMSO control); higher = less cytotoxic
Settings: 1 µM; 72 h; co-treatment: GSK2194069 100 nM
API: value field is a number in %; no unit string.

Recorded cell viability, per entry:
>>> df
                                        mol  numeric_readout
0  O=C(O)C[C@@]1(O)C[C@@H](CCCCCCc2ccc(Cl)cc2Cl)OC1=O             99.5
1       CCCc1cc(-c2nc(-c3ccc(C)cc3)cs2)ccn1             92.5
2                   O=C(NNc1ccccc1)c1ccncc1              104
3  O=C(NCCCCCCNC(=O)ONC1=CCCCC1)ONC1=CCCCC1             87.3

Proceed to the following item.
The value of cell viability measured for the compound COc1ccc(CNC(=O)Nc2ncc([N+](=O)[O-])s2)cc1 turned out to be 86.5

---

The following compounds are listed with their measured cell viability values.
Test system: myeloid leukemia patient primary cells Pat.8
Assay: cell viability (% survival relative to DMSO control); higher = less cytotoxic
Conditions: 1000 nM; 72 h
API: value field is a number in %; no unit string.

Recorded cell viability, per entry:
In [3]: df
Out[3]:
                                        mol  numeric_readout
0  Cc1c(-c2ccc(-c3ccccc3F)cc2)nc2ccc(F)cc2c1C(=O)O             97.6
1  COC(=O)[C@]12CCC(C)(C)C[C@H]1[C@H]1C(=O)C=C3[C@@]4(C)C=C(C#N)C(=O)C(C)(C)[C@@H]4CC[C@@]3(C)[C@]1(C)CC2             9.52
2  CC[C@@]1(O)C(=O)OCc2c1cc1n(c2=O)Cc2cc3c(CN(C)C)c(O)ccc3nc2-1             87.2
3  O=C(C1CC1)N1CC[C@@H](C=C2NNC(=O)N2c2ccc(-c3ccc4occc4c3)cc2)C1             92.2
4                   C=C(C=NNC(=N)N)NNC(=N)N             99.8
5           N#CC(C#N)=NNc1ccc(OC(F)(F)F)cc1             89.1

The value of cell viability measured for the compound O=C(O)C1=CC(=C(c2ccc(O)c(C(=O)O)c2)c2ccc(O)c(C(=O)O)c2)C=CC1=O turned out to be 94.2

The value of cell viability measured for the compound Nc1nc(Cl)nc2c1ncn2[C@H]1C[C@H](O)[C@@H](CO)O1 turned out to be 3.65

---

The following compounds are listed with their measured cell viability values.
Tested on: KG-1
Assay: cell viability (% survival relative to DMSO control, bortezomib = 0%); higher = less cytotoxic
Conditions: 10 nM; 72 h
API: value field is a number in %; no unit string.

Recorded cell viability, per entry:
>>> print(df.to_string())
                                   compound    assay_metric  numeric_readout
0                   O=C(NNc1ccccc1)c1ccncc1  cell viability              104
1  Cc1c(-c2ccc(-c3ccccc3F)cc2)nc2ccc(F)cc2c1C(=O)O  cell viability              102
2  COC(=O)[C@]12CCC(C)(C)C[C@H]1[C@H]1C(=O)C=C3[C@@]4(C)C=C(C#N)C(=O)C(C)(C)[C@@H]4CC[C@@]3(C)[C@]1(C)CC2  cell viability              101
3  NC(=O)c1cccc(-c2cccc(OC(=O)NC3CCCCC3)c2)c1  cell viability              103
4  CC(C)c1onc(-c2c(Cl)cccc2Cl)c1COc1ccc(/C=C/c2cccc(C(=O)O)c2)c(Cl)c1  cell viability             81.5

The value of cell viability measured for the compound Cc1ccccc1C(C(=O)NC1CCCCC1)N(C(=O)Cn1ccnc1C)c1cccc(F)c1 (stereo not drawn) turned out to be 100

The value of cell viability measured for the compound O=C(O)c1cc(Cl)cc(Cl)c1O turned out to be 107

The value of cell viability measured for the compound O=C(NCCCCCCNC(=O)ONC1=CCCCC1)ONC1=CCCCC1 turned out to be 122
